Experiment: Half life in human liver microsomes at 1 uM preincubated with NADP+ for 5 mins prior to compound addition by HPLC-MRM-MS analysis
Type: ADME, Microsome
Measured t1/2 values are reported for all entries that follow.
measured.quantity: t1/2 (min)

• O=C(Nc1ccccn1)c1cc(-c2csc(Nc3ccccc3)n2)on1 = 66
• O=C(Nc1ccccc1)c1cc(-c2csc(Nc3cccc(O)c3)n2)on1 = 34
• Cc1ccc(Nc2nc(-c3cc(C(=O)Nc4ccc(O)cc4)no3)cs2)cc1O = 19
• Cc1ccc(Nc2nc(-c3cc(C(=O)Nc4ccccn4)no3)cs2)cc1 = 16
• O=C(Nc1ccccc1)c1cc(-c2csc(Nc3ccccc3)n2)on1 = 43
• Cc1ccc(Nc2nc(-c3cc(C(=O)Nc4ccccc4)no3)cs2)cc1 = 35
• O=C(Nc1ccccc1)c1cc(-c2csc(Nc3ccc(Cl)cc3)n2)on1 = 59

###

Measured MIC90 values are reported for all entries that follow.
System: Mycobacterium tuberculosis
Test: Antitubercular activity against Mycobacterium tuberculosis H37Rv assessed as inhibition of bacterial growth incubated for 7 days by REMA method
Assay type: functional
Conditions: Mycobacterium tuberculosis, H37Rv, 168 h; time 7 day; read-out: MIC90
measured.quantity: MIC90 (mg/L)

- Cc1ccc(Nc2nc(-c3cc(C(=O)Nc4ccc(O)cc4)no3)cs2)cc1O: 5
- Cc1ccc(Nc2nc(-c3cc(C(=O)Nc4ccccc4F)no3)cs2)cc1: 1
- Cc1ccc(Nc2nc(-c3cc(C(=O)Nc4ccncc4)no3)cs2)cc1: 1
- CN[C@@H]1[C@H](O[C@H]2[C@H](O[C@H]3[C@H](O)[C@@H](O)[C@H](N=C(N)N)[C@@H](O)[C@@H]3N=C(N)N)O[C@@H](C)[C@]2(O)C=O)O[C@@H](CO)[C@H](O)[C@H]1O [STREPTOMYCIN]: 0.25
- Cc1ccc(Nc2nc(-c3cc(C(=O)Nc4ccccc4)no3)cs2)cc1: 1
- O=C(Nc1ccccc1)c1cc(-c2csc(Nc3ccccc3)n2)on1: 1.25
- O=C(Nc1ccccc1)c1cc(-c2csc(Nc3cccc(O)c3)n2)on1: 5
- Cc1ccc(Nc2nc(-c3cc(C(=O)Nc4ccccn4)no3)co2)cc1: 2.5
- Cc1ccc(Nc2nc(-c3cc(C(=O)Nc4cccc(O)c4)no3)cs2)cc1: 0.5
- Cc1ccc(Nc2nc(-c3cc(C(=O)Nc4cccc(C)c4)no3)cs2)cc1: 0.5
- O=C(Nc1ccccc1)c1cc(-c2csc(Nc3ccc(Cl)cc3)n2)on1: 1.25

###

Test system: Mycobacterium tuberculosis
Assay: Antitubercular activity against Mycobacterium tuberculosis H37Rv assessed as inhibition of bacterial growth incubated for 7 days by REMA method
Assay type: functional
Details: Mycobacterium tuberculosis, H37Rv, 168 h; time 7 day; read-out: MIC90
measured.quantity: MIC90

• Cc1ccc(Nc2nc(-c3cc(C(=O)Nc4ccccc4)no3)cs2)cc1O = 2.5 µg/mL
• Cc1ccc(Nc2nc(-c3cc(C(=O)Nc4cccnc4)no3)cs2)cc1 = 10 µg/mL
• O=C(Nc1ccccc1)c1cc(-c2csc(Nc3ccc(CO)cc3)n2)on1 = > 20 µg/mL
• Nc1nc(-c2cc(C(=O)Nc3ccccn3)no2)cs1 = > 20 µg/mL
• O=C(Nc1ccccc1)c1cc(-c2csc(Nc3cc(F)cc(F)c3)n2)on1 = > 20 µg/mL
• Cc1cc(C)cc(Nc2nc(-c3cc(C(=O)Nc4ccccc4)no3)cs2)c1 = 1 µg/mL
• O=C(Nc1ccccn1)c1cc(-c2csc(Nc3cc(Cl)c(Cl)c(Cl)c3)n2)on1 = > 20 µg/mL
• Cc1ccc(Nc2nc(-c3cc(C(=O)Nc4nccs4)no3)cs2)cc1 = > 40 µg/mL
• Cc1ccc(NC(=O)c2cc(-c3csc(Nc4ccc(C)cc4)n3)on2)cc1 = 1 µg/mL
• O=C(Nc1ccccc1)c1cc(-c2csc(Nc3cc(Cl)cc(Cl)c3)n2)on1 = > 20 µg/mL
• Cc1ccc(Nc2nc(-c3cc(C(=O)Nc4cccc(C(F)(F)F)c4)no3)cs2)cc1 = > 20 µg/mL
• Cc1ccc(Nc2nc(-c3cc(C(=O)Nc4ccc(O)cc4)no3)cs2)cc1 = 0.5 µg/mL
• O=C(Nc1ccccn1)c1cc(-c2csc(Nc3ccc(C(F)(F)F)cc3)n2)on1 = > 20 µg/mL
• Cc1ccc(Nc2nc(-c3cc(C(=O)Nc4cc(C)cc(C)c4)no3)cs2)cc1 = > 20 µg/mL
• Cc1ccc(Nc2nc(-c3cc(C(=O)Nc4ccccn4)no3)cs2)cc1O = 5 µg/mL
• Cc1ccc(Nc2nc(-c3cc(C(=O)N4CCCC4)no3)cs2)cc1 = > 20 µg/mL
• Cc1ccc(Nc2nc(-c3cc(C(=O)Nc4ccccc4O)no3)cs2)cc1 = 0.5 µg/mL
• O=C(Nc1ccccn1)c1cc(-c2csc(Nc3ccccc3)n2)on1 = > 20 µg/mL

###

Test system: Mycobacterium tuberculosis
Assay: Antitubercular activity against Mycobacterium tuberculosis H37Rv assessed as inhibition of bacterial growth incubated for 7 days by REMA method
Type: functional
Conditions: Mycobacterium tuberculosis, H37Rv, 168 h; time 7 day; read-out: MIC90
Measured MIC90 values are reported for all entries that follow.
measured.quantity: MIC90 (mg/L)

* Cc1ccc(Nc2nc(-c3cc(C(=O)Nc4ccccc4)no3)co2)cc1 | 1
* Cc1ccc(Nc2nc(-c3cc(C(=O)Nc4ccccc4C)no3)cs2)cc1 | 1
* Cc1ccc(Nc2nc(-c3cc(C(=O)Nc4cccc(F)c4)no3)cs2)cc1 | 2.5
* Cc1ccc(Nc2nc(-c3cc(C(=O)Nc4cc(C)ccn4)no3)cs2)cc1 | 1
* CCOC(=O)c1cc(-c2cccc(Nc3ccc(C)cc3)n2)on1 | 1.25
* Cc1ccc(Nc2nc(-c3cc(C(=O)Nc4ccsc4)no3)cs2)cc1 | 1

###

Tested on: Mycobacterium tuberculosis
Assay: Antitubercular activity against Mycobacterium tuberculosis H37Rv assessed as inhibition of bacterial growth incubated for 7 days by REMA method
Type: functional
Settings: Mycobacterium tuberculosis, H37Rv, 168 h; time 7 day; read-out: MIC90
Measured MIC90 values are reported for all entries that follow.
measured.quantity: MIC90

- Cc1ccc(Nc2nc(-c3cc(C(=O)Nc4ncc(C)s4)no3)cs2)cc1: > 20 µg/mL
- Cc1ccc(Nc2nc(-c3cc(C(=O)Nc4ccc(C)cc4C)no3)cs2)cc1: > 20 µg/mL
- Cc1ccc(Nc2nc(-c3cc(C(=O)Nc4ccccn4)no3)cs2)cc1: 0.5 µg/mL
- Cc1cc(C)cc(Nc2nc(-c3cc(C(=O)Nc4ccccn4)no3)cs2)c1: > 20 µg/mL
- Cc1ccc(Nc2nc(-c3cc(C(=O)Nc4ccc(F)cc4)no3)cs2)cc1: 1 µg/mL

###

Assay: Metabolic stability of the compound in human liver microsomes assessed as parent residual fraction at 1 uM preincubated with NADP+ for 5 mins prior to compound addition by HPCLC-MRM-MS analysis
Type: ADME, Microsome
Details: read-out: Stability
Measured remaining at 1 µM values are reported for all entries that follow.
measured.quantity: remaining at 1 µM (%)

• Nc1nc(-c2cc(C(=O)Nc3ccccc3)no2)cs1 = 97
• O=C(Nc1ccccn1)c1cc(-c2csc(Nc3cc(Cl)c(Cl)c(Cl)c3)n2)on1 = 102
• O=C(Nc1ccccc1)c1cc(-c2csc(Nc3ccc(C(F)(F)F)cc3)n2)on1 = 71
• O=C(Nc1ccccc1)c1cc(-c2csc(Nc3cc(Cl)c(Cl)c(Cl)c3)n2)on1 = 101
• Nc1nc(-c2cc(C(=O)Nc3ccccn3)no2)cs1 = 96
• O=C(Nc1ccccn1)c1cc(-c2csc(Nc3ccc(C(F)(F)F)cc3)n2)on1 = 85

###

Assay: Cytotoxicity against human THP-1 cells assessed as reduction in cell viability measured after 72 hrs by MTT assay
Assay type: toxicity, cell-based
Threshold 60 µg/mL: IC50 at 72 h strictly smaller gives T, otherwise F.

* Cc1ccc(Nc2nc(-c3cc(C(=O)Nc4ccccc4F)no3)cs2)cc1 | T
* Cc1ccc(Nc2nc(-c3cc(C(=O)Nc4cc(C)ccn4)no3)cs2)cc1 | F
* O=C(Nc1ccccc1)c1cc(-c2csc(Nc3ccc(Cl)cc3)n2)on1 | F
* Cc1ccc(Nc2nc(-c3cc(C(=O)Nc4ccccn4)no3)cs2)cc1 | T
* Cc1ccc(Nc2nc(-c3cc(C(=O)Nc4ccccc4C)no3)cs2)cc1 | F
* Cc1ccc(Nc2nc(-c3cc(C(=O)Nc4ccncc4)no3)cs2)cc1 | T
* Cc1ccc(Nc2nc(-c3cc(C(=O)Nc4ccccn4)no3)co2)cc1 | F
* Cc1ccc(Nc2nc(-c3cc(C(=O)N4CCCC4)no3)cs2)cc1 | F
* Cc1ccc(Nc2nc(-c3cc(C(=O)Nc4ccccc4)no3)cs2)cc1 | F
* Cc1ccc(Nc2nc(-c3cc(C(=O)Nc4ccccc4O)no3)cs2)cc1 | T
* Cc1ccc(Nc2nc(-c3cc(C(=O)Nc4ccccn4)no3)cs2)cc1O | F
* Cc1ccc(Nc2nc(-c3cc(C(=O)Nc4ccc(O)cc4)no3)cs2)cc1 | F
* Cc1ccc(Nc2nc(-c3cc(C(=O)Nc4ccsc4)no3)cs2)cc1 | F
* Cc1ccc(Nc2nc(-c3cc(C(=O)Nc4cccc(C)c4)no3)cs2)cc1 | T
* Cc1ccc(NC(=O)c2cc(-c3csc(Nc4ccc(C)cc4)n3)on2)cc1 | T
* Cc1ccc(Nc2nc(-c3cc(C(=O)Nc4cccc(C)n4)no3)cs2)cc1 | F
* Cc1ccc(Nc2nc(-c3cc(C(=O)Nc4ccc(F)cc4)no3)cs2)cc1 | T
* Cc1ccc(Nc2nc(-c3cc(C(=O)Nc4ccccc4)no3)co2)cc1 | F
* O=C(Nc1ccccc1)c1cc(-c2csc(Nc3ccccc3)n2)on1 | T
* Cc1ccc(Nc2nc(-c3cc(C(=O)Nc4cccc(O)c4)no3)cs2)cc1 | T
* Cc1cc(C)cc(Nc2nc(-c3cc(C(=O)Nc4ccccc4)no3)cs2)c1 | F
* CCOC(=O)c1cc(-c2cccc(Nc3ccc(C)cc3)n2)on1 | F
* Cc1ccc(Nc2nc(-c3cc(C(=O)Nc4ccccc4)no3)cs2)cc1O | F
